The reader will find reported Bliss excess values listed item by item below.
Test system: RERF-LC-KJ (Lung Adenocarcinoma)
Assay: Bliss excess, mean over the matrix (fraction); higher = more synergy
Number, no unit, nothing else.

The following compounds have reported results that may help.
compound	numericResult
CS(=O)(=O)CCNCc1ccc(-c2ccc3ncnc(Nc4ccc(OCc5cccc(F)c5)c(Cl)c4)c3c2)o1 [Lapatinib] + C[C@@H](Oc1cc(-c2cnn(C3CCNCC3)c2)cnc1N)c1c(Cl)ccc(F)c1Cl [Crizotinib] (first compound max 10 µM, 7x7, partner max 10 µM)	0.074
Cc1cc2ncnn2cc1Nc1ncc2c(n1)n(C1CCOCC1)c(=O)n2C [AZD7648] + O=C(c1cc(Cc2n[nH]c(=O)c3ccccc23)ccc1F)N1CCN(C(=O)C2CC2)CC1 [Olaparib] (first compound max 10 µM, 7x7, partner max 10 µM)	-0.0546
CN(CCO)CC[C@H](CSc1ccccc1)Nc1ccc(S(=O)(=O)NC(=O)c2ccc(N3CCC([C@@H](O)c4ccccc4-c4ccc(Cl)cc4)CC3)cc2)cc1S(=O)(=O)C(F)(F)F [AZD4320] + CN(C)CCCOc1ccc(-c2ccc3ncc4c(c3c2)n(C2CCOCC2)c(=O)n4C)cn1 [AZD0156] (first compound max 1 µM, 7x7, partner max 1 µM)	-0.0413

GET /value?item= C[C@@H](c1ccc2nccn2c1)n1nnc2ncc(-c3cnn(C)c3)nc21 [Savolitinib] + CN(CC[C@H](CSC1=CC=CC=C1)NC2=C(C=C(C=C2)S(=O)(=O)NC(=O)C3=CC=C(C=C3)N4CCC(CC4)[C@H](C5=CC=CC=C5C6=CC=C(C=C6)Cl)O)S(=O)(=O)C(F)(F)F)CCO [AZD4320] (first compound max 1 µM, 7x7, partner max 1 µM) &field=Bliss excess returns -0.0454

GET /value?item= NC1(C(=O)N[C@@H](CCO)c2ccc(Cl)cc2)CCN(c2ncnc3[nH]ccc23)CC1 [Capivasertib] + CCN(CCO)CCCOc1ccc2c(Nc3cc(CC(=O)Nc4cccc(F)c4)[nH]n3)ncnc2c1 [AZD2811] (first compound max 10 µM, 7x7, partner max 1 µM) &field=Bliss excess returns -0.0135

GET /value?item= CC1(C)CCC(CN2CCN(c3ccc(C(=O)NS(=O)(=O)c4ccc(NCC5CCOCC5)c([N+](=O)[O-])c4)c(Oc4cnc5[nH]ccc5c4)c3)CC2)=C(c2ccc(Cl)cc2)C1 [Venetoclax] + C=CCn1c(=O)c2cnc(Nc3ccc(N4CCN(C)CC4)cc3)nc2n1-c1cccc(C(C)(C)O)n1 [AZD1775] (first compound max 1 µM, partner max 1 µM) &field=Bliss excess returns -0.0394

###

System: 786-0 (Kidney Carcinoma)
Experiment: combination Emax (second highest fraction inhibited in the dose matrix, 72 h); higher = more inhibition; extreme values may be limits of the assay
The reader will find reported combination Emax values listed item by item below.

The following compounds have reported results that may help.
compound	measuredAttribute	result
CC(=O)Nc1cccc(-n2c(=O)n(C3CC3)c(=O)c3c(Nc4ccc(I)cc4F)n(C)c(=O)c(C)c32)c1 [Trametinib] + Cc1nc(-c2cn3c(n2)-c2ccc(-c4cnn(C(C)(C)C(N)=O)c4)cc2OCC3)n(C(C)C)n1 [Taselisib] (first compound max 1 µM, 7x7, partner max 10 µM)	combination Emax	0.613
C[C@@H](c1ccc2nccn2c1)n1nnc2ncc(-c3cnn(C)c3)nc21 [Savolitinib] + CC1(C)CCC(CN2CCN(c3ccc(C(=O)NS(=O)(=O)c4ccc(NCC5CCOCC5)c([N+](=O)[O-])c4)c(Oc4cnc5[nH]ccc5c4)c3)CC2)=C(c2ccc(Cl)cc2)C1 [Venetoclax] (first compound max 1 µM, 7x7, partner max 1 µM)	combination Emax	0.159

Here is the next item to consider.
GET /value?item= Cc1cc2ncnn2cc1Nc1ncc2c(n1)n(C1CCOCC1)c(=O)n2C [AZD7648] + O=C(c1cc(Cc2n[nH]c(=O)c3ccccc23)ccc1F)N1CCN(C(=O)C2CC2)CC1 [Olaparib] (first compound max 10 µM, 7x7, partner max 10 µM) &field=combination Emax returns 0.101

###

System: RL95-2 (Endometrial Carcinoma)
Test: Bliss excess, mean over the matrix (fraction); higher = more synergy
measuredAttribute: Bliss excess
Number, no unit, nothing else.

compound	numericResult
CC(=O)c1c(C)c2cnc(Nc3ccc(N4CCNCC4)cn3)nc2n(C2CCCC2)c1=O [Palbociclib] + CN(CC[C@H](CSC1=CC=CC=C1)NC2=C(C=C(C=C2)S(=O)(=O)NC(=O)C3=CC=C(C=C3)N4CCC(CC4)[C@H](C5=CC=CC=C5C6=CC=C(C=C6)Cl)O)S(=O)(=O)C(F)(F)F)CCO [AZD4320] (first compound max 10 µM, 7x7, partner max 1 µM)	-0.0566

Here is the next item to consider.
GET /value?item= COc1cc2c(cc1OCCCCCOc1cc3c(cc1OC)C(=O)N1C=C(C)C[C@H]1C=N3)N=C[C@@H]1CC(C)=CN1C2=O [SG3199] + O=C(c1cc(Cc2n[nH]c(=O)c3ccccc23)ccc1F)N1CCN(C(=O)C2CC2)CC1 [Olaparib] (first compound max 0.001 µM, 7x7, partner max 10 µM) &field=Bliss excess returns -0.0383

###

Tested on: NKM-1 (Acute Myeloid Leukemia)
Test: combination Emax (second highest fraction inhibited in the dose matrix, 72 h); higher = more inhibition; extreme values may be limits of the assay
So basically: combination Emax at 0.8 or higher? That is met. Lower than 0.8? That is not met.

compound	testedTarget	qualitativeLabel
CC1(C)CCC(CN2CCN(c3ccc(C(=O)NS(=O)(=O)c4ccc(NCC5CCOCC5)c([N+](=O)[O-])c4)c(Oc4cnc5[nH]ccc5c4)c3)CC2)=C(c2ccc(Cl)cc2)C1 [Venetoclax] + C[C@@H](Nc1cc(F)cc(F)c1)c1cc(C(=O)N(C)C)cc2c(=O)cc(N3CCOCC3)oc12 [AZD8186] (first compound max 1 µM, 7x7, partner max 3 µM)	NKM-1 (Acute Myeloid Leukemia)	met
Cc1cc2ncnn2cc1Nc1ncc2c(n1)n(C1CCOCC1)c(=O)n2C [AZD7648] + CCN(CCO)CCCOc1ccc2c(Nc3cc(CC(=O)Nc4cccc(F)c4)[nH]n3)ncnc2c1 [AZD2811] (first compound max 10 µM, 7x7, partner max 1 µM)	NKM-1 (Acute Myeloid Leukemia)	not met
O=C(c1cc(Cc2n[nH]c(=O)c3ccccc23)ccc1F)N1CCN(C(=O)C2CC2)CC1 [Olaparib] + CN(CC[C@H](CSC1=CC=CC=C1)NC2=C(C=C(C=C2)S(=O)(=O)NC(=O)C3=CC=C(C=C3)N4CCC(CC4)[C@H](C5=CC=CC=C5C6=CC=C(C=C6)Cl)O)S(=O)(=O)C(F)(F)F)CCO [AZD4320] (first compound max 10 µM, 7x7, partner max 1 µM)	NKM-1 (Acute Myeloid Leukemia)	met
NC1(C(=O)N[C@@H](CCO)c2ccc(Cl)cc2)CCN(c2ncnc3[nH]ccc23)CC1 [Capivasertib] + Cn1cnc2c(F)c(Nc3ccc(Br)cc3Cl)c(C(=O)NOCCO)cc21 [Selumetinib] (first compound max 10 µM, 7x7, partner max 10 µM)	NKM-1 (Acute Myeloid Leukemia)	met
CC1(C)CCC(CN2CCN(c3ccc(C(=O)NS(=O)(=O)c4ccc(NCC5CCOCC5)c([N+](=O)[O-])c4)c(Oc4cnc5[nH]ccc5c4)c3)CC2)=C(c2ccc(Cl)cc2)C1 [Venetoclax] + C1CN(CCC1(C(=O)N[C@@H](CCO)C2=CC=C(C=C2)Cl)N)C3=NC=NC4=C3C=CN4 [Capivasertib] (first compound max 1 µM, 7x7, partner max 3 µM)	NKM-1 (Acute Myeloid Leukemia)	met
CC1(C)CCC(CN2CCN(c3ccc(C(=O)NS(=O)(=O)c4ccc(NCC5CCOCC5)c([N+](=O)[O-])c4)c(Oc4cnc5[nH]ccc5c4)c3)CC2)=C(c2ccc(Cl)cc2)C1 [Venetoclax] + COc1cc(Nc2ncc3c(n2)-c2ccc(Cl)cc2C(c2c(F)cccc2OC)=NC3)ccc1C(=O)O [Alisertib] (first compound max 1 µM, 7x7, partner max 10 µM)	NKM-1 (Acute Myeloid Leukemia)	met
O=C(c1cc(Cc2n[nH]c(=O)c3ccccc23)ccc1F)N1CCN(C(=O)C2CC2)CC1 [Olaparib] + COc1nnc2ccc(N3CCC(c4ccc(OCCN5CCN(C)C(=O)[C@H]5C)cc4)CC3)nn12 [AZD5153] (first compound max 10 µM, 7x7, partner max 1 µM)	NKM-1 (Acute Myeloid Leukemia)	met
Cc1c2c(nn1C)CSCc1cc(n(C)n1)CSc1cc(c3ccccc3c1)OCCCc1c(C(=O)O)n(C)c3c-2c(Cl)ccc13 [AZD5991] + CS(=O)(=O)CCNCc1ccc(-c2ccc3ncnc(Nc4ccc(OCc5cccc(F)c5)c(Cl)c4)c3c2)o1 [Lapatinib] (first compound max 1 µM, 7x7, partner max 10 µM)	NKM-1 (Acute Myeloid Leukemia)	met
N#Cc1cnc(Nc2cc(NC[C@H]3CNCCO3)c(C(F)(F)F)cn2)cn1 [SRA737] + O=c1[nH]cc(F)c(=O)[nH]1 [5-Fluorouracil] (first compound max 10 µM, 7x7, partner max 20 µM)	NKM-1 (Acute Myeloid Leukemia)	met
CCN(CCO)CCCOc1ccc2c(Nc3cc(CC(=O)Nc4cccc(F)c4)[nH]n3)ncnc2c1 [AZD2811] + O=C(c1cc(Cc2n[nH]c(=O)c3ccccc23)ccc1F)N1CCN(C(=O)C2CC2)CC1 [Olaparib] (first compound max 1 µM, 7x7, partner max 10 µM)	NKM-1 (Acute Myeloid Leukemia)	not met

**Q:** Dear colleague, could you confirm whether Cc1c2c(nn1C)CSCc1cc(n(C)n1)CSc1cc(c3ccccc3c1)OCCCc1c(C(=O)O)n(C)c3c-2c(Cl)ccc13 [AZD5991] + Nc1ccn([C@@H]2O[C@H](CO)[C@@H](O)C2(F)F)c(=O)n1 [Gemcitabine] (first compound max 1 µM, 7x7, partner max 0.3 µM) has combination Emax at or above 0.8?
**A:** met

**Q:** Dear colleague, could you confirm whether Cc1cc2ncnn2cc1Nc1ncc2c(n1)n(C1CCOCC1)c(=O)n2C [AZD7648] + O=C(c1cc(Cc2n[nH]c(=O)c3ccccc23)ccc1F)N1CCN(C(=O)C2CC2)CC1 [Olaparib] (first compound max 10 µM, 7x7, partner max 10 µM) has combination Emax at or above 0.8?
**A:** not met

Data origin, for the record: the supplement of paper PMC11061612
